Task for the reader: assign each of the following compounds its reported max response.
- Tested on: KB-3-1
- MEASUREMENT_DESCRIPTION: Cytotoxic Profiling of Annotated Libraries Using Quantitative High-Throughput Screening (AID 1296008); also: % is scaled to controls: 0 for no effect and ±100 for the full control effect; nearly all actives have a fitted effect of over 60% in size
- CONDITION_DESCRIPTION: Five cell lines viability, CellTiter-Glo ATP luminescence, 48-72 h; hits give low values
Inconclusive results are not listed. Activity calls are given as the source filed them. Calls follow the shape of the dose curve; as a rule, active = well fitted inhibition curve with a large enough effect; inconclusive = small, poorly fitted or top-dose-only effect; inactive = flat fitted curve, though single readings scatter.

Would you kindly share the measured max response for O=C(O)c1ccnc2cc(C(OCC3CCC(F)(F)CC3)c3ccccc3Cl)[nH]c12 (configuration not stated) ?
8.39% (inactive)

Then this compound: C[C@@H]1O[C@@H](O[C@H]2[C@H](OC(=O)[C@]34CCC(C)(C)C[C@H]3C3=CCC5[C@@]6(C)C[C@@H](O)[C@@H](O)[C@@](C)(CO)C6[C@H](O)C[C@@]5(C)[C@]3(C)CC4)OC[C@H](O)[C@@H]2O)[C@H](O)[C@H](O)[C@H]1O[C@@H]1OC[C@@H](O)[C@H](O[C@H]2O[C@H](C)[C@@H](O)[C@H](O)[C@@H]2O)[C@H]1O (some centres not stated)
8.34% (inactive)

====

- Tested on: HEK293T
- MEASUREMENT_DESCRIPTION: qHTS assay to identify novel small-molecules to repurpose for Merkel cell carcinoma treatment (AID 1296009); also: nearly all actives have a fitted effect of over 60% in size
- CONDITION_DESCRIPTION: MCC and control cell lines, CellTiter-Glo viability, 72 h; at 44.8 µM (top of the series) unless noted
Records with an inconclusive call do not appear. The source made the active and inactive calls. The call rests on the fitted dose curve; in most records, active means well fitted inhibition curve with a large enough effect; inconclusive means small, poorly fitted or top-dose-only effect; inactive means flat fitted curve, though single readings scatter.
ENDPOINT_NAME: outcome

COc1cccc(CNc2ccc(S(=O)(=O)Nc3nc4ccccc4s3)cc2)c1O = inactive
CC1(C)OC(=O)CC(O)C2(C)C1CC(=O)C1(C)C2C(O)CC2(C)C(c3ccoc3)OC(=O)C3OC321 (configuration not stated) = inactive [at 17.4 µM]
C/C=C/C=C/C=C/C(=O)O[C@@H]1[C@@H](OC)C2=C(C(=O)N(C(CCC(=O)O)C(=O)O)C2)[C@@]2(C)CCCC(C)(C)[C@H]12 (some centres not stated) = inactive [at 17.4 µM]
CC(=O)OC1CCC2(C)C(CCC3(C)C2CC=C2C4CC(C)(C)CCC4(C)CCC23C)C1(C)C(=O)O (configuration not stated) = inactive [at 17.4 µM]
C[C@@H]1CC[C@]2(C(=O)O)CC[C@]3(C)C(=CCC4[C@@]5(C)C[C@@H](O)[C@@H](O)C(C)(C)C5CC[C@]43C)C2[C@]1(C)O (some centres not stated) = inactive [at 17.4 µM]

Would you kindly share the measured outcome for COc1cc(/C=C/C(=O)O[C@H]2C[C@@H]3C(C(=O)O)=CO[C@@H](O[C@@H]4O[C@H](CO)[C@@H](O)[C@H](O)[C@H]4O)[C@@H]3[C@H]2C)ccc1O ?
inactive [at 17.4 µM]

Then this compound: COC(=O)[C@H](Cc1ccc([N+](=O)[O-])cc1)NC(=O)c1cccc2ccccc12
inactive

Then this compound: O=C(/C=C/c1ccc(O)cc1)OC[C@H]1O[C@H](O[C@@]2(CO)O[C@@H](CO)[C@H](O)[C@H]2O)[C@H](O)[C@@H](O)[C@@H]1O
inactive [at 17.4 µM]

Then this compound: Cn1nccc1-c1ccccc1Oc1ccc(S(=O)(=O)Nc2nccs2)cc1C#N
inactive

====

- MEASUREMENT_DESCRIPTION: P-glycoprotein substrates identified in KB-8-5-11 adenocarcinoma cell line, qHTS therapeutic library screen (AID 1346987); also: nearly all actives have a fitted effect of over 65% in size
- CONDITION_DESCRIPTION: KB-8-5-11 (P-gp overexpressing) viability, CellTiter-Glo, 72 h; series mostly up to 44.5 µM
Records with an inconclusive call do not appear. The source made the active and inactive calls. The call rests on the fitted dose curve; in most records, active means well fitted inhibition curve with a large enough effect; inconclusive means small, poorly fitted or top-dose-only effect; inactive means flat fitted curve, though single readings scatter. *1 amine or outer side, *2 acyl side, *3 side chain or, on linkers, in order; H or OH if unused. Where a SMILES comes first, the peptide text is derived from it. Bridges are numbered along the chain shown (N, C = ends). [ ]: non-standard residue; d: D form. The star is where a group is joined. ξ: configuration not given here. ξhTyr(3S-OH,4S-OH,3'-OSO3H) = NC(C(=O)O)[C@H](O)[C@@H](O)c1ccc(O)c(OS(=O)(=O)O)c1; Orn(4R-OH,5R-OH) = O=C([C@H](C[C@@H](O)[C@@H](O)N[*:3])N[*:1])[*:2]; X2 = CCCCCOc1ccc(-c2cc(-c3ccc(C(=O)*)cc3)no2)cc1; X3 = C[C@H]1CN([*:1])C(C(=O)[*:2])[C@H]1O; ξGln(3R-OH) = NC(=O)C[C@@H](O)C(N)C(=O)O; ξPro(4R-OH) = O=C(O)C1C[C@@H](O)CN1; ξThr(3R) = C[C@@H](O)C(N)C(=O)O
ENDPOINT_NAME: activity change, negative = cytotoxicity

CC(C)=CCc1cc(O[C@@H]2O[C@H](CO[C@@H]3OC[C@](O)(CO)[C@H]3O)[C@@H](O)[C@H](O)[C@H]2O)ccc1O = inactive
CCCCCOc1ccc(-c2cc(-c3ccc(C(=O)N[C@H]4C[C@@H](O)[C@@H](O)NC(=O)C5[C@@H](O)[C@@H](C)CN5C(=O)C([C@H](O)CC(N)=O)NC(=O)C([C@H](O)[C@@H](O)c5ccc(O)c(OS(=O)(=O)O)c5)NC(=O)C5C[C@@H](O)CN5C(=O)C([C@@H](C)O)NC4=O)cc3)no2)cc1 (stereo partly drawn) (X2-[Orn(4R-OH,5R-OH)][ξThr(3R)][ξPro(4R-OH)][ξhTyr(3S-OH,4S-OH,3'-OSO3H)][ξGln(3R-OH)][X3]; lactam 1-C) = inactive

====

- TARGET_DESC: Glutathione peroxidase 1 (Homo sapiens) (UniProt P07203)
- Sequence (P07203 whole entry, looked up): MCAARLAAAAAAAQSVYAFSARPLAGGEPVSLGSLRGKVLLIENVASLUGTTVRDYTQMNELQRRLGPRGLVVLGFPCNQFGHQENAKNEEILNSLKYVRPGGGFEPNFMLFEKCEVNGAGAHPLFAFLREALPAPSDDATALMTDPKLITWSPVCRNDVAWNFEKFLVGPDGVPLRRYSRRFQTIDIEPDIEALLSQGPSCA
- MEASUREMENT_DESCRIPTION: Primary qHTS Assay for Inhibitors of Recombinant Selenoprotein Glutathione Peroxidase 1 (GPX1) (AID 1845191); also: % is scaled to controls: 0 for no effect and ±100 for the full control effect; nearly all actives have a fitted effect of over 65% in size
- CONDITION_DESCRIPTION: recombinant GPX1, GR-coupled NADPH fluorescence, 15 min; series mostly up to 27.7 µM
Records with an inconclusive call do not appear. The source made the active and inactive calls. Calls come from the whole dose curve; as a rule, active = well fitted inhibition curve with a large enough effect; inconclusive = small, poorly fitted or top-dose-only effect; inactive = flat fitted curve, though single readings scatter.
ENDPOINT_NAME: outcome

CCC(C)/C=C(C)/C=C/C1=CC2=C(Cl)C(=O)C(C)(O)C(=O)C2(O)C(OC)O1 (stereo not drawn) = inactive
C=C1CCC2C(C)(C)CC(O)CC2(C)C1CCC(C)CC(=O)O (stereo not drawn) = inactive
C[C@@H]1O[C@@H](O[C@H]2[C@H](O[C@H]3[C@H](O[C@H]4CC[C@@]5(C)C(CC[C@]6(C)C5CC=C5[C@@H]7CC(C)(C)C[C@@H](O)[C@]7(C)CC[C@]56C)C4(C)C)O[C@H](C(=O)O)[C@@H](O)[C@@H]3O)O[C@H](C(=O)O)[C@H](O)[C@@H]2O)[C@H](O)[C@H](O)[C@H]1O (stereo partly drawn) = inactive

====

- Test system: JEG-3
- MEASUREMENT_DESCRIPTION: Primary qHTS to identify gynecologic anti-cancer compounds using libraries of approved drugs and bioactive compounds (AID 1345084); also: % is scaled to controls: 0 for no effect and ±100 for the full control effect; nearly all actives have a fitted effect of over 55% in size
- CONDITION_DESCRIPTION: Gynecologic cancer cell panel viability, ATPlite luminescence, 48 h; series mostly up to 57.5 µM
Results filed as inconclusive are left out. Active and inactive are the calls of the source. Calls come from the whole dose curve; as a rule, active = well fitted cell-killing curve with a large enough effect; inconclusive = small, poorly fitted or top-dose-only effect, or effect the other way; inactive = flat fitted curve, though single readings scatter.
ENDPOINT_NAME: activity change, negative = cytotoxicity

Hi! What's the reported activity change, negative = cytotoxicity for C[C@@H]1O[C@@H](O[C@H]2[C@H](OC(=O)[C@]34CCC(C)(C)C[C@H]3C3=CCC5[C@@]6(C)C[C@@H](O)[C@@H](O[C@@H]7O[C@H](CO)[C@@H](O)[C@H](O)[C@H]7O)[C@@](C)(CO)C6[C@H](O)C[C@@]5(C)[C@]3(C)CC4)OC[C@H](O)[C@@H]2O)[C@H](O)[C@H](O[C@@H]2OC[C@](O)(CO)[C@H]2O)[C@H]1O[C@@H]1OC[C@@H](O)[C@H](O[C@H]2O[C@H](C)[C@@H](O)[C@H](O)[C@@H]2O)[C@H]1O (some centres not stated) on JEG-3?
14.8% [at 6.55 µM] (inactive)

====

- TARGET_DESC: Luciferin 4-monooxygenase (Photinus pyralis) (UniProt P08659)
- MEASUREMENT_DESCRIPTION: Primary firefly luciferase (FLuc) qHTS assay for identification of artifact compounds. (AID 1845220); also: nearly all actives have a fitted effect of over 60% in size
- CONDITION_DESCRIPTION: purified firefly luciferase, luminescence, 5 min; series mostly up to 54.1 µM
- Source text: PI: Alexander Tropsha Ph.D. UNC Eshelman School of Pharmacy University of North Carolina, Chapel Hill, North Carolina Hits from high-throughput screening (HTS) of chemical libraries are often false positives due to their interference with the assay detection technology. […] Using these curated datasets, we developed and validated several Quantitative Structure-Interference Relationship (QSIR) models to predict nuisance behavior. […] 6; Detection; Luminescence, ViewLux microplate reader. […]
Calls of active or inactive are those of the source. The call rests on the fitted dose curve; in most records, active means well fitted inhibition curve with a large enough effect; inconclusive means small, poorly fitted or top-dose-only effect; inactive means flat fitted curve, though single readings scatter.
ENDPOINT_NAME: outcome

CC1(C)CC[C@]2(C(=O)O[C@@H]3O[C@H](CO[C@@H]4O[C@H](CO[C@@H]5O[C@H](CO)[C@H](O)[C@H](O)[C@H]5O)[C@@H](O)[C@H](O)[C@H]4O)[C@@H](O)[C@H](O[C@@H]4O[C@H](CO)[C@@H](O)[C@H](O)[C@H]4O)[C@H]3O)[C@H](O)C[C@]3(C)C(=CCC4[C@@]5(C)CC[C@H](O[C@@H]6OC[C@@H](O)[C@H](O)[C@H]6O)[C@@](C)(C(=O)O)C5CC[C@]43C)[C@@H]2C1 (stereo partly drawn) = inactive [at 11.6 µM]
C=C1CC[C@@]2(OC1)O[C@H]1CC3C4CC=C5C[C@@H](O[C@@H]6O[C@@H](C)[C@H](O)[C@@H](O)[C@H]6O)C[C@@H](O[C@@H]6O[C@H](C)[C@H](O)[C@H](O)[C@H]6O[C@@H]6O[C@@H](C)[C@H](O)[C@@H](O)[C@H]6O)[C@]5(C)C4CC[C@]3(C)[C@H]1[C@@H]2C (stereo partly drawn) = inactive [at 11.6 µM]
CC(=O)OCC1OC(O[C@H]2CC[C@]34C[C@]35CC(O)[C@]3(C)[C@@H]([C@H](C)CC/C=C(\C)C(=O)O)C(O)C[C@@]3(C)C5CC[C@H]4C2(C)C)C(O)C(O)C1OC1OCC(O)C(O)C1O (stereo partly drawn) = inactive [at 11.6 µM]
